src = ChEMBL document CHEMBL4476874

assayed.system: Myc proto-oncogene protein (Homo sapiens, UniProt P01106)
Sequence (P01106 whole entry): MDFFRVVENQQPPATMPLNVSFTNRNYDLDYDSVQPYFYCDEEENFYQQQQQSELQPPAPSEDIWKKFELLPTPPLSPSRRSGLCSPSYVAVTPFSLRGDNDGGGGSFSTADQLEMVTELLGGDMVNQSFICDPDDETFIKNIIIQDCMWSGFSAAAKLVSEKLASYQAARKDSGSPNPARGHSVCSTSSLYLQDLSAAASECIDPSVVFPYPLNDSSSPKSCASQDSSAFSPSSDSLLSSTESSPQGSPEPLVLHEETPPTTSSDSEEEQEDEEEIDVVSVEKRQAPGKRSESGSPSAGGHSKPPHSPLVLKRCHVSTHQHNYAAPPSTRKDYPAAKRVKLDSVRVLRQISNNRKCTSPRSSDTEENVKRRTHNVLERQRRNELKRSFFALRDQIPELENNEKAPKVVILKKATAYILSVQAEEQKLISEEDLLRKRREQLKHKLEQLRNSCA
assay.protocol: Inhibition of human c-Myc assessed as reduction in c-Myc/Max/Ebox DNA complex formation using pre-formed complex of c-Myc and biotinylated DNA containing single Ebox-sequence followed by compound addition and further addition of his6-tagged c-Max and incubated for 2 hrs by AlphaScreen assay
pIC50: −log10 of the molar value.

compound | pIC50
COCCNCCC(=O)Nc1sc2c(c1-c1nc3cc(-c4cccc(C(=O)NCCN(C)C)c4)ccc3s1)CCNC2 | 6.00 to 6.52
CC(C)NCCC(=O)Nc1sc2c(c1-c1nc3cc(C4=CCN(S(=O)(=O)N(C)C)CC4)ccc3s1)CCNC2 | 6.00 to 6.52
COCCNCCC(=O)Nc1sc2c(c1-c1nc3ccc(-c4ccnc5[nH]ccc45)cc3s1)CCNC2 | < 5.00
COCCNCCC(=O)Nc1sc2c(c1-c1nc3ccc(-c4ccc(C(=O)N5CCOCC5)cc4)cc3s1)CCNC2 | 6.00 to 6.52
COCCNCCC(=O)Nc1sc2c(c1-c1nc3cc(-c4ccc5c(c4)OCO5)ccc3s1)CCNC2 | < 5.00
CC(C)NCCC(=O)N(C)c1sc2c(c1-c1nc3cc(-c4cnn(C)c4)ccc3s1)CCNC2 | < 5.00
COCCNCCC(=O)Nc1sc2c(c1-c1nc3ccc(-c4ccncc4C)cc3s1)CCNC2 | < 5.00
CC(C)N1CCc2c(sc(NC(=O)CCN3CCN(C)CC3)c2-c2nc3ccccc3s2)C1 | 6.00 to 6.52
COCCNCCC(=O)Nc1sc2c(c1-c1nc3cc(-c4cccc5[nH]ncc45)ccc3s1)CCNC2 | 5.00 to 6.00
CC(C)NCCC(=O)Nc1sc2c(c1-c1nc3cc(S(=O)(=O)C4CCCC4)ccc3s1)CCNC2 | 6.00 to 6.52
CC(C)NCCC(=O)Nc1sc2c(c1-c1nc3cc(-n4cncn4)ccc3s1)CCNC2 | > 6.52
O=C(C[C@@H]1CCCN1)Nc1sc2c(c1-c1nc3ccccc3s1)CCNC2 | 5.00 to 6.00
COCCNCCC(=O)Nc1sc2c(c1-c1nc3cc(-c4ccnc(C)c4)ccc3s1)CCNC2 | 6.00 to 6.52
COCCNCCC(=O)Nc1sc2c(c1-c1nc3ccc(-c4cccnc4C)cc3s1)CCNC2 | < 5.00
COCCNCCC(=O)Nc1sc2c(c1-c1nc3cc(-c4ccc5c(=O)[nH]ccc5c4)ccc3s1)CCNC2 | < 5.00
COCCNCCC(=O)Nc1sc2c(c1-c1nc3ccc(-c4ccc5nc(N)ncc5c4)cc3s1)CCNC2 | < 5.00
COCCNCCC(=O)Nc1sc2c(c1-c1nc3ccc(-c4cccc(S(N)(=O)=O)c4)cc3s1)CCNC2 | 6.00 to 6.52
COCCNCCC(=O)Nc1sc2c(c1-c1nc3cc(-c4cccc(C(F)(F)F)c4)ccc3s1)CCNC2 | < 5.00
COCCNCCC(=O)Nc1sc2c(c1-c1nc3ccc(-c4cnc(N)nc4)cc3s1)CCNC2 | 6.00 to 6.52
CC(C)NCCC(=O)Nc1sc2c(c1-c1nc3cc(-c4ccccc4)ccc3s1)CCNC2 | 6.00 to 6.52
Cc1cc(-c2ccc3sc(-c4c(NC(=O)CCNC(C)C)sc5c4CCNC5)nc3c2)cc(C)n1 | < 5.00
COCCNCCC(=O)Nc1sc2c(c1-c1nc3ccc(-c4cc5cccc(OC)c5[nH]4)cc3s1)CCNC2 | 5.00 to 6.00
COCCNCCC(=O)Nc1sc2c(c1-c1nc3ccc(-c4cccnc4F)cc3s1)CCNC2 | < 5.00
COCCNCCC(=O)Nc1sc2c(c1-c1nc3cc(-c4ccc(C)nc4OC)ccc3s1)CCNC2 | 5.00 to 6.00
COCCNCCC(=O)Nc1sc2c(c1-c1nc3cc(-c4ccc5c(c4)NC(=O)CO5)ccc3s1)CCNC2 | 5.00 to 6.00
COCCNCCC(=O)Nc1sc2c(c1-c1nc3ccc(-c4ccc(S(=O)(=O)NC5CC5)cc4)cc3s1)CCNC2 | < 5.00
NCCC(=O)Nc1sc2c(c1-c1nc3ccccc3s1)CCNC2 | > 6.52
COCCNCCC(=O)Nc1sc2c(c1-c1nc3ccc(-c4cccc(C(=O)N(C)C)c4)cc3s1)CCNC2 | 6.00 to 6.52
COCCNCCC(=O)Nc1sc2c(c1-c1nc3ccc(-c4cccnc4OC)cc3s1)CCNC2 | 5.00 to 6.00
COCCNCCC(=O)Nc1sc2c(c1-c1nc3ccc(-c4cnn(Cc5ccccc5)c4)cc3s1)CCNC2 | 5.00 to 6.00
COCCNCCC(=O)Nc1sc2c(c1-c1nc3ccccc3s1)CCN(C(C)C)C2 | 6.00 to 6.52
CCOc1ncccc1-c1ccc2sc(-c3c(NC(=O)CCNCCOC)sc4c3CCNC4)nc2c1 | 5.00 to 6.00
COCCNCCC(=O)Nc1sc2c(c1-c1nc3cc(OC4CCOCC4)ccc3s1)CCNC2 | 6.00 to 6.52
CCC(C)N(CCC(=O)Nc1sc2c(c1-c1nc3ccccc3s1)CCN(C(C)C)C2)C(=O)OC(C)(C)C (stereo unspecified) | < 5.00
COCCNCCC(=O)Nc1sc2c(c1-c1nc3ccc(-c4cncnc4)cc3s1)CCNC2 | 6.00 to 6.52
COCCNCCC(=O)Nc1sc2c(c1-c1nc3ccc(-c4cnn(C)c4C)cc3s1)CCNC2 | 6.00 to 6.52
